Data credit: paper PMC6597546

protocol notes: Liver microsome Clint (human)
Format: in vitro ADME
recorded conditions: liver microsomes
endpoint: microsomal CLint

// query Look at this compound and give its reported microsomal CLint. CC1(C)OB(O)c2cc(NC(=O)c3ccc(-n4cccn4)cc3Cl)ccc21
// result < 1 µL/min/mg

---

protocol notes: Solubility PBS pH 7.4
Assay type: physicochemical
recorded conditions: aqueous buffer
endpoint: solubility (µM)
Field format: number, assumed µM, no unit text.

// query Look at this compound and give its reported solubility. CC1(C)OB(O)c2cc(NC(=O)c3ccc(-n4cccn4)cc3Cl)ccc21 [AN7973]
// result 126

---

protocol notes: Single-dose oral and intravenous murine PK
Type: in vivo, female CD-1 mice
recorded conditions: female, mouse, plasma, 10 mg/kg; CD-1 mice, oral 10 mg per kg
endpoint: AUC(0-inf) (ng·h/mL)
Field format: number, assumed ng·h/mL, no unit text.

// query Look at this compound and give its reported AUC(0-inf). CC1(C)OB(O)c2cc(NC(=O)c3ccc(-n4cccn4)cc3Cl)ccc21
// result 92700

---

protocol notes: Single-dose oral calf PK
Format: in vivo, Holstein bull calves
recorded conditions: male, Holstein, bovine, plasma, 5 mg/kg; calves, oral 5 mg per kg
endpoint: Cmax (ng/mL)
Field format: number, assumed ng/mL, no unit text.

// query Look at this compound and give its reported Cmax. CC1(C)OB(O)c2cc(NC(=O)c3ccc(-n4cccn4)cc3Cl)ccc21 [AN7973]
// result 3570

---

system: CYP2C19 (Homo sapiens)
Sequence (P33261 whole entry): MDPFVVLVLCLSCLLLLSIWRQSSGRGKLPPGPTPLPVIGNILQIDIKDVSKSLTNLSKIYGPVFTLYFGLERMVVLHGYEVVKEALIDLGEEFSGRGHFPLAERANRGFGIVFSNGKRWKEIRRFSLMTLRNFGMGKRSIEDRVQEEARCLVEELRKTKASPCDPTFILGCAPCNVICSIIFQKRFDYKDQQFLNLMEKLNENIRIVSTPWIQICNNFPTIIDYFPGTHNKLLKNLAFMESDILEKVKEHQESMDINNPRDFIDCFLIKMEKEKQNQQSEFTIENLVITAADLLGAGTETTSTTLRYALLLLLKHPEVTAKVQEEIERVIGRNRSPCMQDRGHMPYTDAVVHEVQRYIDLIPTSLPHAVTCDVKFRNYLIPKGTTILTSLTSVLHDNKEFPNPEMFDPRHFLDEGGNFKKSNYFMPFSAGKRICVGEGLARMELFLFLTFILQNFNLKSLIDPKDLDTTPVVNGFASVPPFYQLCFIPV
protocol notes: CYP450 inhibition 2C19
Format: in vitro ADME
endpoint: inhibition at 10 µM
Your reply should be a number followed by the unit it is expressed in.

// query Look at this compound and give its reported inhibition at 10 µM. CC1(C)OB(O)c2cc(NC(=O)c3ccc(-n4cccn4)cc3Cl)ccc21
// result 27%

---

protocol notes: Plasma Protein Binding (bovine)
Format: in vitro ADME
recorded conditions: read-out: Plasma Protein Binding (PPB) (converted)
endpoint: fraction unbound
In your answer, state the number alone without any accompanying words.

// query Look at this compound and give its reported fraction unbound. CC1(C)OB(O)c2cc(NC(=O)c3ccc(-n4cccn4)cc3Cl)ccc21 [AN7973]
// result 0.04

---

protocol notes: Liver microsome Clint (mouse)
Format: in vitro ADME
recorded conditions: liver microsomes
endpoint: microsomal CLint

// query Look at this compound and give its reported microsomal CLint. CC1(C)OB(O)c2cc(NC(=O)c3ccc(-n4cccn4)cc3Cl)ccc21
// result < 1 µL/min/mg

---

Tested on: MDR1 (P-gp)
protocol notes: in vitro
recorded conditions: dog, MDCK-MDR1, MDCK-MDR1 Papp + Pgp inhibitor
endpoint: Papp
Your reply should be a number followed by the unit it is expressed in.

// query Look at this compound and give its reported Papp. CC1(C)OB(O)c2cc(NC(=O)c3ccc(-n4cccn4)cc3Cl)ccc21
// result 60.6 ×10⁻⁶ cm/s

---

protocol notes: Rat toxicokinetics (TK) study
Assay type: in vivo, Sprague-Dawley male rats
recorded conditions: male, Sprague-Dawley, serum; rat, 80 mg·kg-1 oral once daily, Day 7
endpoint: half-life (h)
Field format: number, assumed h, no unit text.

// query Look at this compound and give its reported half-life. CC1(C)OB(O)c2cc(NC(=O)c3ccc(-n4cccn4)cc3Cl)ccc21 [AN7973]
// result 22.7

---

protocol notes: Single-dose oral and intravenous murine PK
Assay type: in vivo, female CD-1 mice
recorded conditions: female, mouse, plasma, 10 mg/kg; CD-1 mice, oral 10 mg per kg
endpoint: half-life (h)
Field format: number, assumed h, no unit text.

// query Look at this molecule and give its reported half-life. CC1(C)OB(O)c2cc(NC(=O)c3ccc(-n4cccn4)cc3Cl)ccc21 [AN7973]
// result 6.6

---

protocol notes: Rat toxicokinetics (TK) study
Format: in vivo, Sprague-Dawley male rats
recorded conditions: male, Sprague-Dawley, rat, serum, po, 80 mg/kg, rat, 80 mg·kg-1 oral once daily, Day 1
endpoint: AUC (µg·h/mL)
Field format: number, assumed µg·h/mL, no unit text.

// query Look at this compound and give its reported AUC. CC1(C)OB(O)c2cc(NC(=O)c3ccc(-n4cccn4)cc3Cl)ccc21
// result 170

---

protocol notes: Rat toxicokinetics (TK) study
Format: in vivo, Sprague-Dawley male rats
recorded conditions: male, Sprague-Dawley, rat, serum, po, 80 mg/kg, rat, 80 mg·kg-1 oral once daily, Day 7
endpoint: AUC
Your reply should be a number followed by the unit it is expressed in.

// query Look at this compound and give its reported AUC. CC1(C)OB(O)c2cc(NC(=O)c3ccc(-n4cccn4)cc3Cl)ccc21
// result 155 µg·h/mL

---

protocol notes: Single-dose oral calf PK
Type: in vivo, Holstein bull calves
recorded conditions: male, Holstein, bovine, plasma, po, 5 mg/kg, calves, oral 5 mg per kg
endpoint: half-life (h)
Field format: number, assumed h, no unit text.

// query Look at this compound and give its reported half-life. CC1(C)OB(O)c2cc(NC(=O)c3ccc(-n4cccn4)cc3Cl)ccc21
// result 31

---

system: UniProtKB P08684
Sequence (P08684 whole entry): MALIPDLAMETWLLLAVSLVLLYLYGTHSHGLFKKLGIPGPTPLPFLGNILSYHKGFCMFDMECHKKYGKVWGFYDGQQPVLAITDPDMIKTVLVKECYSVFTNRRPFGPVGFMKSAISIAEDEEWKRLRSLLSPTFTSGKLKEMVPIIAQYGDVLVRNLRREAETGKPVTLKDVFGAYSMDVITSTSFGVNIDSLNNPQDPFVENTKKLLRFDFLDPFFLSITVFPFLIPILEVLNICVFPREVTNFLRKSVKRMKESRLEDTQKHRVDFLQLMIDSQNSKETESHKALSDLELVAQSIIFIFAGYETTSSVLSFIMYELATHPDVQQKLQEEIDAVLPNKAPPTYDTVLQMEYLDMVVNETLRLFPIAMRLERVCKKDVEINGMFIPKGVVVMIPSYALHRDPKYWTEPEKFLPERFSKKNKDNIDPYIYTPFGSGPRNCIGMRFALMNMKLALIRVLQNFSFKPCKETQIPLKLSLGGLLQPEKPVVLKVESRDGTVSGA
protocol notes: CYP450 inhibition 3A4
Type: in vitro ADME
endpoint: inhibition at 10 µM (%)
Field format: number, assumed %, no unit text.

// query Look at this molecule and give its reported inhibition at 10 µM. CC1(C)OB(O)c2cc(NC(=O)c3ccc(-n4cccn4)cc3Cl)ccc21 [AN7973]
// result 1

---

protocol notes: Rat toxicokinetics (TK) study
Format: in vivo, Sprague-Dawley male rats
recorded conditions: male, Sprague-Dawley, rat, serum, po, 80 mg/kg, rat, 80 mg·kg-1 oral once daily, Day 7
endpoint: Cmax (ng/mL)
Field format: number, assumed ng/mL, no unit text.

// query Look at this compound and give its reported Cmax. CC1(C)OB(O)c2cc(NC(=O)c3ccc(-n4cccn4)cc3Cl)ccc21
// result 10100

---

protocol notes: Rat toxicokinetics (TK) study
Assay type: in vivo, Sprague-Dawley male rats
recorded conditions: male, Sprague-Dawley, serum; rat, 80 mg·kg-1 oral once daily, Day 1
endpoint: Tmax (h)
Field format: number, assumed h, no unit text.

// query Look at this compound and give its reported Tmax. CC1(C)OB(O)c2cc(NC(=O)c3ccc(-n4cccn4)cc3Cl)ccc21
// result 8

---

System: MDR1 (P-gp)
protocol notes: in vitro
recorded conditions: dog, MDCK-MDR1, MDCK-MDR1 Papp
endpoint: Papp (×10⁻⁶ cm/s)
Field format: number, assumed ×10⁻⁶ cm/s, no unit text.

// query Look at this molecule and give its reported Papp. CC1(C)OB(O)c2cc(NC(=O)c3ccc(-n4cccn4)cc3Cl)ccc21 [AN7973]
// result 56.5
